The entries below are paired with their reported IC50.
Experiment: Cytotoxicity against human LS 174T cells after 72 hrs by MTT assay
Format: functional, cell-based
Conditions: LS174T

structureAsSmiles	qualifierOperator	IC50 / µM
COCOc1cc(/C=C/C(=O)OCC(=O)Nc2ccc(Cl)cc2)ccc1OCc1ccccc1	>	200
O=C(COC(=O)/C=C/c1ccc(O)c(O)c1)NN1CCOCC1	>	200
COc1ccc(NC(=O)COC(=O)/C=C/c2ccc(O)c(O)c2)cc1	=	124
O=C(/C=C/c1ccc(O)c(O)c1)OCCc1ccccc1	=	9.9
COc1ccc(/C=C/C(=O)OCC(=O)NCc2ccco2)cc1OC	>	200
CCCCCNC(=O)COC(=O)/C=C/c1ccc(O)c(O)c1	=	69.4
COc1ccc(NC(=O)COC(=O)/C=C/c2ccc(OCc3ccccc3)c(O)c2)cc1	>	200
O=C(/C=C/c1ccc(O)c(O)c1)NCCN1CCOCC1	>	200
O=C(/C=C/c1ccc(O)c(O)c1)N1CCN(Cc2ccc(Cl)c(Cl)c2)CC1	=	50.4
CCOc1ccc(COc2c(OC)cc(/C=C/C(=O)OCC(=O)Nc3ccccc3)cc2OC)cc1	>	200
COCOc1cc(/C=C/C(=O)OCC(=O)NCc2ccco2)ccc1OCc1ccccc1	>	200
O=C(COC(=O)/C=C/c1ccc(O)c(O)c1)Nc1ccc(Cl)cc1	=	108
COCOc1cc(/C=C/C(=O)OCC(=O)Nc2ccc(OC)cc2)ccc1OCc1ccccc1	>	200
COc1ccc(/C=C/C(=O)N2CCN(Cc3ccc(Cl)c(Cl)c3)CC2)cc1OC	>	200
Cc1ccc(NC(=O)COC(=O)/C=C/c2ccc(O)c(O)c2)cc1	=	145
COCOc1cc(/C=C/C(=O)OCC(=O)Nc2nccs2)ccc1OCc1ccccc1	>	200
O=C(/C=C/c1ccccc1)N1CCN(Cc2ccc(Cl)c(Cl)c2)CC1	=	34.1
O=C(/C=C/c1ccc(O)c(O)c1)NCCc1c[nH]c2ccccc12	=	8.4
COCOc1ccc(/C=C/C(=O)NCCc2c[nH]c3ccccc23)cc1OCOC	=	165
COc1ccc(/C=C/C(=O)NCCN2CCOCC2)cc1OC	>	200
CCOc1ccc(COc2c(OC)cc(/C=C/C(=O)NCCN3CCOCC3)cc2OC)cc1	>	200
